Target: cellular kallikrein activity (Homo sapiens (Human), UniProt P03952)
Sequence (P03952 391-638): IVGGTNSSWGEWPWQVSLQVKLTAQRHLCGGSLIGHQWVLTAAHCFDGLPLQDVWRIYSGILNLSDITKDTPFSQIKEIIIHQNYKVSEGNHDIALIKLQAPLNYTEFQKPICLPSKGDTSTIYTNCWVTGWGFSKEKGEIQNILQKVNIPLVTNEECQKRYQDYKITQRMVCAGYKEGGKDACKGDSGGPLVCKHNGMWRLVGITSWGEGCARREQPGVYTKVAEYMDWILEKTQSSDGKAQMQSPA
Sequence (P03952 20-390 partner): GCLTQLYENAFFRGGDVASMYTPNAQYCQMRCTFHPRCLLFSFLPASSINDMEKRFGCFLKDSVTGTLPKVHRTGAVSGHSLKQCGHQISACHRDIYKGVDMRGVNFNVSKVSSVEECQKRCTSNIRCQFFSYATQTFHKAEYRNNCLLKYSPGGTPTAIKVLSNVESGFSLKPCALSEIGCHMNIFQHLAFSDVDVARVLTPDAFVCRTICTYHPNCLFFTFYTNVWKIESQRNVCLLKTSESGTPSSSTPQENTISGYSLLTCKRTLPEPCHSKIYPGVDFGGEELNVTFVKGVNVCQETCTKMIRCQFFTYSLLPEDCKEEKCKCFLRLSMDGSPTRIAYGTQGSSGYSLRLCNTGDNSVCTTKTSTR
Test: In vitro cellular assay (contact assay): kallikrein activity in ellagic acid-activated human plasma, Z-FR-2-AMC substrate
Conditions: human plasma activated with ellagic acid, 37° C.
In this section, each of the compounds is paired with its reported EC50.

Known EC50 results, listed for orientation:
compound	EC50
CCCc1cnc2ccc(Cc3cc(C(=O)NCc4c(C)cc(N)nc4C)ccn3)cc2c1	< 100 nM
Cc1cc(N)nc(C)c1CNC(=O)c1ccnc(Cc2cnc3ncc(Cl)cc3c2)c1	< 100 nM
Cc1cc(N)nc(C)c1CNC(=O)c1ccnc(C(N)c2ccc3ncc(Cl)cc3c2)c1 (stereo not shown)	100 to 1000 nM

Consider the record given below.
Report EC50 for CC(C)(O)c1cc(Cc2cc(C(=O)NCc3cc4c(Cl)c[nH]c4cc3F)ccn2)cc2cc(Cl)cnc12 please.
100 to 1000 nM

* * *

Target: human plasma kallikrein (Homo sapiens (Human), UniProt P03952)
Experiment: In vitro enzyme inhibition of human plasma kallikrein (PFR-AMC cleavage)
Conditions: Pro-Phe-Arg-AMC substrate, 37° C., read-out: hPK IC50
parameter: IC50

Known IC50 results, listed for orientation:
compound	IC50
O=C(NCc1ccc2[nH]cc(Cl)c2c1F)c1ccnc(Cc2ccc3ncc(C(F)(F)F)cc3c2)c1 [Example 234]	< 100 nM
Cc1cc2[nH]cc(Cl)c2cc1CNC(=O)c1ccnc(Cc2ccc3ncc(Cl)cc3c2)c1 [Example 190]	100 to 1000 nM
Cc1cnc2c(S(N)(=O)=O)cc(Cc3cc(C(=O)NCc4cc5c(Cl)c[nH]c5cc4F)ccn3)cc2c1 [Example 287]	< 100 nM
O=C(NCc1ccc2ncc(Cl)cn12)c1ccnc(Cc2ccc3ncc(Cl)cc3c2)c1 [Example 206]	> 10000 nM
O=C(NCc1cc2cc[nH]c2cc1F)c1ccnc(Cc2ccc3ncc(Cl)cc3c2)c1 [Example 259]	100 to 1000 nM

Can you look up IC50 on human plasma kallikrein (Homo sapiens (Human), UniProt P03952) for Cc1cnc2c(S(N)(=O)=O)cc(Cc3cc(C(=O)NCc4ccc5[nH]cc(Cl)c5c4F)ccn3)cc2c1 [Example 290] ?
< 100 nM

Moving on to Cc1ccn2cnc(CNC(=O)c3ccnc(Cc4ccc5ncc(Cl)cc5c4)c3)c2c1 [Example 156]
< 100 nM

Moving on to Cc1cc(N)nc(C)c1CNC(=O)c1ccnc(C(O)c2ccc3ncc(Cl)cc3c2)c1 (centres unmarked) [Example 275]
< 100 nM

* * *

Biological target: human plasma kallikrein (Homo sapiens (Human))
Experiment: In vitro enzyme inhibition of human plasma kallikrein (PFR-AMC cleavage)
Details: Pro-Phe-Arg-AMC substrate, 37° C., read-out: hPK IC50
In this section, each of the compounds is paired with its reported IC50.

structure_notation	parameter	data_value
Cc1nc(N)ccc1CNC(=O)c1ccnc(Cc2cc(-c3nnn[nH]3)c3ncc(Cl)cc3c2)c1	IC50	100 to 1000 nM

Report IC50 for Cc1c(CNC(=O)c2ccnc(Cc3ccc4ncc(Cl)cc4c3)c2)cnc2[nH]cc(Cl)c12 please.
100 to 1000 nM

Moving on to Cc1nc(N)ccc1CNC(=O)c1ccnc(Cc2ccc3ncc(C(F)(F)F)cc3c2)c1
< 100 nM

Moving on to Cc1nc(N)ccc1CNC(=O)c1ccnc(Cc2cc(CN)c3ncc(Cl)cc3c2)c1
< 100 nM

Moving on to O=C(NCc1cnc2[nH]cc(Cl)c2c1)c1ccnc(Cc2ccc3ncc(C(F)(F)F)cc3c2)c1
< 100 nM

Moving on to O=C(NCc1ccc2[nH]cc(Cl)c2c1F)c1ccnc(Cc2ccc3ncc(C4CC4)cc3c2)c1
< 100 nM

Moving on to Cc1cc(N)nc(C)c1CNC(=O)c1ccnc(Cc2ccc3ncc(CO)cc3c2)c1
< 100 nM

Moving on to Cc1cc(C)c(CNC(=O)c2ccnc(Cc3ccc4ncc(Cl)cc4c3)c2)c(C)n1
1000 to 10000 nM

* * *

Target: human plasma kallikrein (Homo sapiens (Human))
Experiment: In vitro enzyme inhibition of human plasma kallikrein (PFR-AMC cleavage)
Settings: Pro-Phe-Arg-AMC substrate, 37° C., read-out: hPK IC50
In this section, each of the compounds is paired with its reported IC50.

Known IC50 results, listed for orientation:
compound	experimental_system	data_value
NCc1ccc(CNC(=O)c2ccnc(Cc3ccc4ncc(Cl)cc4c3)c2)cn1	human plasma kallikrein (Homo sapiens (Human))	> 10000 nM
Cc1nc(N)ccc1CNC(=O)c1ccnc(Cc2ccc3ncc(C(C)O)cc3c2)c1 (centres unmarked)	human plasma kallikrein (Homo sapiens (Human))	100 to 1000 nM
Cc1cc(N)nc(C)c1CNC(=O)c1ccnc(Cc2cnc3[nH]c(C(F)(F)F)cc3c2)c1	human plasma kallikrein (Homo sapiens (Human))	< 100 nM
Cc1nc(N)ccc1CNC(=O)c1ccnc(Cc2cc3cc(Cl)cnc3cn2)c1	human plasma kallikrein (Homo sapiens (Human))	< 100 nM
CCc1cnc2ccc(Cc3cc(C(=O)NCc4cc5c(Cl)c[nH]c5cc4F)ccn3)cc2c1	human plasma kallikrein (Homo sapiens (Human))	< 100 nM
CC(C)(O)c1cc(Cc2cc(C(=O)NCc3ccc4[nH]cc(Cl)c4c3F)ccn2)cc2cc(Cl)cnc12	human plasma kallikrein (Homo sapiens (Human))	< 100 nM
O=C(NCc1c[nH]c2ncc(Cl)cc12)c1ccnc(Cc2ccc3ncc(Cl)cc3c2)c1	human plasma kallikrein (Homo sapiens (Human))	1000 to 10000 nM

Consider the record given below.
Report IC50 for O=C(NCc1n[nH]c2ccc(Cl)cc12)c1ccnc(Cc2ccc3ncc(N4CCCC4)cc3c2)c1 please.
100 to 1000 nM

* * *

Target: human plasma kallikrein (Homo sapiens (Human), UniProt P03952)
Assay: In vitro enzyme inhibition of human plasma kallikrein (PFR-AMC cleavage)
Format: biochemical
Settings: Pro-Phe-Arg-AMC substrate, 37° C., read-out: hPK IC50
pIC50: −log10 of the molar value.
parameter: pIC50

structure_notation	pIC50
O=C(NCc1nnc2ccc(Cl)cn12)c1ccnc(Cc2ccc3ncc(Cl)cc3c2)c1	6.00 to 7.00
Nc1cnc2ccc(Cc3cc(C(=O)NCc4ccc5c(N)nccc5c4)ccn3)cc2c1	6.00 to 7.00
Cc1nc(NCCO)ccc1CNC(=O)c1ccnc(Cc2ccc3ncc(Cl)cc3c2)c1	< 5.00

Can you look up pIC50 on human plasma kallikrein (Homo sapiens (Human), UniProt P03952) for Cc1cc(N)nc(C)c1CNC(=O)c1ccnc(Cn2ncc3cc(Cl)cnc32)c1 ?
6.00 to 7.00

* * *

Biological target: human plasma kallikrein (Homo sapiens (Human))
Experiment: In vitro enzyme inhibition of human plasma kallikrein (PFR-AMC cleavage)
Conditions: Pro-Phe-Arg-AMC substrate, 37° C., read-out: hPK IC50
parameter: IC50

Known IC50 results, listed for orientation:
structure_notation	data_value
Nc1cnc2ccc(Cc3cc(C(=O)NCc4ccc5[nH]cc(Cl)c5c4F)ccn3)cc2c1	100 to 1000 nM
Cc1cc(N)nc(C)c1CNC(=O)c1ccnc(Cc2cc3cc(Cl)cn3cn2)c1	< 100 nM
NCc1ccc(CNC(=O)c2ccnc(Cc3ccc4ncc(Cl)cc4c3)c2)nc1	> 10000 nM

Consider the record given below.
Report IC50 for Cc1cc(N)nc(C)c1CNC(=O)c1ccnc(Cc2cnc3ncc(Cl)cc3c2)c1 please.
< 100 nM

* * *

In this section, each of the molecules is paired with its reported IC50.
Biological target: human plasma kallikrein (Homo sapiens (Human), UniProt P03952)
Test: In vitro enzyme inhibition of human plasma kallikrein (PFR-AMC cleavage)
Details: Pro-Phe-Arg-AMC substrate, 37° C., read-out: hPK IC50

structure_notation	IC50
Cc1cc2c(N)nccc2cc1CNC(=O)c1ccnc(Cc2ccc3ncc(C(F)(F)F)cc3c2)c1	< 100 nM
O=C(NCc1ccc2[nH]cc(Cl)c2c1F)c1ccnc(Cc2ccc3ncc(N4CCCCC4)cc3c2)c1	> 10000 nM
Cc1cnc2c(S(N)(=O)=O)cc(Cc3cc(C(=O)NCc4ccc5c(N)nccc5c4)ccn3)cc2c1	< 100 nM
O=C(NCc1c[nH]c2ccc(Cl)cc12)c1ccnc(Cc2ccc3ncc(Cl)cc3c2)c1	100 to 1000 nM
Cc1cc(N)nc(C)c1CNC(=O)c1ccnc(Cc2ccc3ncc(C4CC4)cc3c2)c1	< 100 nM
Cc1cc(N)nc(C)c1CNC(=O)c1ccnc(Cn2cc3cc(Cl)cnc3n2)c1	100 to 1000 nM
Cc1cc(N)nc(C)c1CNC(=O)c1ccnc(Cc2cc(-c3nnn[nH]3)c3ncc(Cl)cc3c2)c1	< 100 nM
Cc1n[nH]c2ncc(CNC(=O)c3ccnc(Cc4ccc5ncc(Cl)cc5c4)c3)cc12	1000 to 10000 nM
O=C(NCc1cnc2[nH]cc(Cl)c2c1)c1ccnc(Cc2ccc3ncc(N4CCOCC4)cc3c2)c1	1000 to 10000 nM
O=C(NCc1ccc2[nH]nc(C(F)(F)F)c2c1)c1ccnc(Cc2ccc3ncc(Cl)cc3c2)c1	1000 to 10000 nM

Report IC50 for Cc1ccn2nnc(CNC(=O)c3ccnc(Cc4ccc5ncc(Cl)cc5c4)c3)c2c1 please.
100 to 1000 nM

Moving on to CCc1cnc2ccc(Cc3cc(C(=O)NCc4ccc5[nH]cc(Cl)c5c4F)ccn3)cc2c1
< 100 nM
